Molecular target: OE19 (3A1) (Homo sapiens, UniProt P30838)
Sequence (P30838 1-453): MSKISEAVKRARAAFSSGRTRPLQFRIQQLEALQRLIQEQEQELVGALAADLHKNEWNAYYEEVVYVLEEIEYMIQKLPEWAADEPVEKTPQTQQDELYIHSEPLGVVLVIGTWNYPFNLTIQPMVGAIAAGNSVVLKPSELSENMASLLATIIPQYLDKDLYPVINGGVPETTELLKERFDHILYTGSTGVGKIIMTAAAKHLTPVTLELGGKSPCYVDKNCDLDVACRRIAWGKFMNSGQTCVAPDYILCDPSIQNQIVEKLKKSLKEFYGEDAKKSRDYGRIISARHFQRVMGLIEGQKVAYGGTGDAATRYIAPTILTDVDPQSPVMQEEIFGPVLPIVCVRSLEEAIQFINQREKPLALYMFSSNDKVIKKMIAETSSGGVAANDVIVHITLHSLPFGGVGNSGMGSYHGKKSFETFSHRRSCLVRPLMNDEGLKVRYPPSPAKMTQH
Assay: Cellular ALDEFLUOR assay in OE19 cells (preferential ALDH3A1 expression)
Settings: Table S4, OE19 cells
Measurement Type: Cell_Efficacy
// keep it numeric: no unit symbol after the value

Fill in reported Cell_Efficacy for this entry: Cc1cccc(CNC(=O)c2csc(N3CCN(c4ccccc4Cl)CC3)n2)c1 [NCGC01211121-01] -81.66

Fill in reported Cell_Efficacy for this entry: Cc1cccc(CNC(=O)c2csc(N3CCN(c4ccc(C#N)cc4)CC3)n2)c1 [NCGC01211190-01] -84.69

Fill in reported Cell_Efficacy for this entry: Cc1cccc(CNC(=O)c2csc(N3CCN(c4cccc(OCc5ccccc5C)c4)CC3)n2)c1 [NCGC01211373-01] -85.56

---

Biological target: OE19 (3A1) (Homo sapiens)
Test: Cellular ALDEFLUOR assay in OE19 cells (preferential ALDH3A1 expression)
Details: Table S4, cellular curve class
compounds and their reported Cell_CC-v2
// keep it numeric: no unit symbol after the value

Reference set, count: 2
> print(dat)
                  compound.structure.string  measurement.type  recorded.measurement
1  Cc1cccc(CNC(=O)c2csc(N3CCN(c4ccc(C5(C#N)CCCCC5)cc4)CC3)n2)c1        Cell_CC-v2                  -1.2
2  Cc1cccc(CNC(=O)c2csc(N3CCN(c4ccc(C(F)(F)F)cc4)CC3)n2)c1        Cell_CC-v2                  -1.1

Fill in reported Cell_CC-v2 for this entry: Cc1cccc(CNC(=O)c2csc(N3CCN(c4cccc(C#N)c4)CC3)n2)c1 -2.1

Fill in reported Cell_CC-v2 for this entry: COc1c(F)cc(N2CCN(c3nc(C(=O)NCc4cccc(C)c4)cs3)CC2)cc1F -1.2

Fill in reported Cell_CC-v2 for this entry: COc1ccc(N2CCN(c3nc(C(=O)NCc4cccc(C(F)(F)F)c4)cs3)CC2)cc1 -1.1

Fill in reported Cell_CC-v2 for this entry: COC(=O)c1ccc(N2CCN(c3nc(C(=O)NCc4cccc(C)c4)cs3)CC2)cc1 -1.1

Fill in reported Cell_CC-v2 for this entry: COc1ccc(F)c(N2CCN(c3nc(C(=O)NCc4cccc(C)c4)cs3)CC2)c1 -1.1

Fill in reported Cell_CC-v2 for this entry: Cc1cccc(CNC(=O)c2csc(N3CCN(c4ccc(F)cc4)CC3)n2)c1 -1.3

Fill in reported Cell_CC-v2 for this entry: Cc1cccc(CNC(=O)c2csc(N3CCN(c4ccc(F)c(Cl)c4)CC3)n2)c1 -1.1

Fill in reported Cell_CC-v2 for this entry: Cc1cccc(CNC(=O)c2csc(N3CCN(c4cccc(C(F)(F)F)n4)CC3)n2)c1 -1.1

Fill in reported Cell_CC-v2 for this entry: COc1ccc(N2CCN(c3nc(C(=O)NCc4cccc(C)c4)cs3)CC2)c(OC)c1 -1.1

Fill in reported Cell_CC-v2 for this entry: Cc1cccc(CNC(=O)c2csc(N3CCN(c4cccc(O)c4)CC3)n2)c1 -1.2

Fill in reported Cell_CC-v2 for this entry: Cc1cccc(CNC(=O)c2csc(N3CCN(c4ccccc4F)CC3)n2)c1 -1.1

Fill in reported Cell_CC-v2 for this entry: COc1cc(N2CCN(c3nc(C(=O)NCc4cccc(C)c4)cs3)CC2)cc(OC)c1OC -1.2

Fill in reported Cell_CC-v2 for this entry: COc1ccccc1N1CCN(c2nc(C(=O)NCc3cccc(C)c3)cs2)CC1 -1.3

---

molecules and their reported AC50
Molecular target: Human ALDH3A1 (Homo sapiens)
Sequence (P30838 1-453): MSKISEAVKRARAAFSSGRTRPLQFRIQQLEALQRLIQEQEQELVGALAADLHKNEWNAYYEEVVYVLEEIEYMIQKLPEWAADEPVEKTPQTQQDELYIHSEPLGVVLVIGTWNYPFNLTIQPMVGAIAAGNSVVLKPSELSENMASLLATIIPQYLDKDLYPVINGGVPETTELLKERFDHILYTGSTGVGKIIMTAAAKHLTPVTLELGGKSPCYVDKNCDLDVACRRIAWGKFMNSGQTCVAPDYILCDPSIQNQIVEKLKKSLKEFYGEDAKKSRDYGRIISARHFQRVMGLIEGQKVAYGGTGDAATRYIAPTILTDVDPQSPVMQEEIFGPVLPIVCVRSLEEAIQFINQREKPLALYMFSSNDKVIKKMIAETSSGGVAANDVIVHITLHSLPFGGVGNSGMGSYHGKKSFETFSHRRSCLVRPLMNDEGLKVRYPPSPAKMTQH
Test: ALDH3A1 biochemical assay (benzaldehyde/NADP+, diaphorase-resazurin readout, 1,536-well)
Lab book: enter the figure in µM, no units written.

Enter measured AC50, system Human ALDH3A1 (Homo sapiens), for the molecule shown: CN1CCOc2c(C(=O)NCCC(N)=O)cc(-c3ccc(CO)cc3)cc21 17.8

Enter measured AC50, system Human ALDH3A1 (Homo sapiens), for the molecule shown: Cc1cccc(CNC(=O)c2csc(N3CCN(c4ccc(C(N)=O)cc4)CC3)n2)c1 40.8

Enter measured AC50, system Human ALDH3A1 (Homo sapiens), for the molecule shown: CC(O)c1ccc(CCNC(=O)C(=O)Nc2cc3c4c(c2)CC(=O)N4CCC3)s1 (centres unmarked) 11.2

Enter measured AC50, system Human ALDH3A1 (Homo sapiens), for the molecule shown: O=C(NCc1cccc(Cl)c1)c1csc(N2CCN(c3cccc(C(F)(F)F)c3)CC2)n1 0.0237

Enter measured AC50, system Human ALDH3A1 (Homo sapiens), for the molecule shown: Cc1cccc(CNC(=O)c2csc(N3CCN(c4ccc(C#N)cc4)CC3)n2)c1 1.45

---

Target: OE19 (3A1) (Homo sapiens, UniProt P30838)
Experiment: Cellular ALDEFLUOR assay in OE19 cells (preferential ALDH3A1 expression)
Settings: Table S5, cellular curve class
Measurement Type: Cell_CC-v2
// keep it numeric: no unit symbol after the value

Reference set, count: 4
> print(dat)
                  compound.structure.string                             system.tested  recorded.measurement
1  CC(C)(C)c1cccc(CNC(=O)c2csc(N3CCN(c4cccc(C(F)(F)F)c4)CC3)n2)c1  OE19 (3A1) (Homo sapiens, UniProt P30838)                  -1.2
2  O=C(NCc1ccc(S(F)(F)(F)(F)F)cc1)c1csc(N2CCN(c3cccc(C(F)(F)F)c3)CC2)n1  OE19 (3A1) (Homo sapiens, UniProt P30838)                  -1.1
3  CC(C)(O)c1ccc(CNC(=O)c2csc(N3CCN(c4cccc(C(F)(F)F)c4)CC3)n2)cc1  OE19 (3A1) (Homo sapiens, UniProt P30838)                     5
4  Cc1ccc(-c2cccc(CNC(=O)c3csc(N4CCN(c5cccc(C(F)(F)F)c5)CC4)n3)c2)cc1  OE19 (3A1) (Homo sapiens, UniProt P30838)                  -1.1

Fill in reported Cell_CC-v2 for this entry: CC(C)(C)c1cc(CNC(=O)c2csc(N3CCN(c4cccc(C(F)(F)F)c4)CC3)n2)cc(C(C)(C)C)c1 4

---

Target: UniProt:P30838
Test: ALDH3A1 biochemical assay (benzaldehyde/NADP+, diaphorase-resazurin readout, 1,536-well)
Conditions: Table S2, in-house analogs; curve class
Measurement Type: CC-v2
// keep it numeric: no unit symbol after the value

> print(dat)
                                   compound  recorded.measurement
1  COc1ccc(N2CCN(c3nc(C(=O)NC4CC4)cs3)CC2)cc1 [NCGC00430672-01]                  -1.2
2  COc1cccc(-c2cc(C(=O)NCc3cnn(C)c3)c3c(c2)N(C)CCO3)c1OC [NCGC00417015-01]                  -2.2
3  COc1ccc(N2CCN(c3nc(C(=O)NCc4ccc(F)cc4F)cs3)CC2)cc1 [NCGC00430664-01]                  -1.4
4  O=C(NCC1CC1)c1csc(N2CCN(c3ccccc3F)CC2)n1 [NCGC00430728-01]                  -2.4
5  CN1CCOc2c(C(=O)NCc3cccnc3)cc(-c3cnn(C)c3)cc21 [NCGC00417099-01]                  -1.4
6  CN1CCOc2c(C(=O)NCCC(N)=O)cc(-c3ccccc3O)cc21 [NCGC00417061-01]                  -1.2
7  COc1ccc(NC(=O)N[C@@H]2C=C[C@@H](c3c(C)nn(CCC#N)c3C)C2)cc1 [NCGC00399960-01]                  -1.1
8  Cc1nn(Cc2ccccc2)c(C)c1[C@@H]1C=C[C@@H](NC(=O)Nc2ccccc2)C1 [NCGC00400191-01]                  -2.2

Enter measured CC-v2, system UniProt:P30838, for the compound shown: COc1cccc(N2CCN(c3nc(C(=O)NCc4cccnc4)cs3)CC2)c1 [NCGC00430684-01] -2.2
